Below, each entry is listed with its recorded IC50.
target: Tolloid-like protein 1 (Homo sapiens, UniProt O43897, I156V/N221S/V284A); test: Inhibition of recombinant human TLL1 I156V/N221S/V284A mutant expressed in CHOE1A cells pre-incubated for 10 mins before promyostatin peptide substrate addition and measured after 60 mins by FRET based assay
Sequence (O43897 148-1013 I156V/N221S/V284A limits assumed): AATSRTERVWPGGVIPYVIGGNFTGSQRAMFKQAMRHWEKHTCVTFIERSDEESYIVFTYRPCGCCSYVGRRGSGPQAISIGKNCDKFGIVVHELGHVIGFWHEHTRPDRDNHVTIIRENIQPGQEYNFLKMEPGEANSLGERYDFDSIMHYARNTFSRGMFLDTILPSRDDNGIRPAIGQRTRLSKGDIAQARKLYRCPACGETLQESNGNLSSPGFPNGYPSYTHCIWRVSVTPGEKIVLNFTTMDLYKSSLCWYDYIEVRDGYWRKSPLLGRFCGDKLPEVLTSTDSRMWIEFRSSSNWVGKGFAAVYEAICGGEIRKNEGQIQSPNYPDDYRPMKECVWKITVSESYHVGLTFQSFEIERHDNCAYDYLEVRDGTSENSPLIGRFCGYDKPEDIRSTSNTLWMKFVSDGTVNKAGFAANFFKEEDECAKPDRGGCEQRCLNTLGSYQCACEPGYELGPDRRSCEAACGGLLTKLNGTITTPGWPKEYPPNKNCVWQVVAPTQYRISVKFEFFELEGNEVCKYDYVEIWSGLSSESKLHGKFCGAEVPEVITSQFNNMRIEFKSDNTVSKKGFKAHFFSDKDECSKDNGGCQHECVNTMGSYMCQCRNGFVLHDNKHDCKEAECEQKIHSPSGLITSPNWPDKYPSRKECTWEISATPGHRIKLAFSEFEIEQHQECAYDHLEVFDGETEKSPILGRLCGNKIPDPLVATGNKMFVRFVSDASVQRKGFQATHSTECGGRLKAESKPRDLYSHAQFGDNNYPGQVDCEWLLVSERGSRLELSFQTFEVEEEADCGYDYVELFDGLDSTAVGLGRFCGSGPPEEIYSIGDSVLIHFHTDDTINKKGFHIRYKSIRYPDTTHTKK

CCCCC[C@@H](C(=O)NCNC(=O)c1cccc(-c2cccc(S)c2)c1)[C@@H](CC)N(O)C=O | < 398 nM
CCCCC[C@@H](C(=O)NCNC(=O)c1cccc(-c2ccc(C(=O)O)c(C(=O)O)c2)n1)[C@@H](CC)N(O)C=O | < 398 nM
CCCCC[C@@H](C(=O)NCNC(=O)c1cccc(-c2cc(OCC)cc(C(=O)O)c2O)n1)[C@@H](CC)N(O)C=O | < 398 nM
CCCCC[C@H](CN(O)C=O)C(=O)NCNC(=O)c1cccc(-c2ccc(C(F)(F)F)cc2)n1 | < 398 nM

Exam item: Returns the measured IC50 for the input compound. Input: CCCCC[C@@H](C(=O)NCNC(=O)c1cccc(-c2ccc(C(=O)N[C@@H](CC(=O)O)C(=O)O)cc2)n1)[C@@H](CC)N(O)C=O
Marked response: < 398 nM

Exam item: Could you tell me which IC50 is on file for O=CN(O)C[C@@H](CC1CCCC1)C(=O)NCNC(=O)c1cccc(-c2cccc(C(F)(F)F)c2)c1 ?
Marked response: < 398 nM

Exam item: State the recorded IC50 for this entry: N#Cc1cccc(-c2cccc(C(=O)NCNC(=O)[C@H](CC3CCCC3)CN(O)C=O)c2)c1
Marked response: < 398 nM

Exam item: So what's the measured IC50 for this one? O=CN(O)C[C@@H](CC1CCCC1)C(=O)NCNC(=O)c1cccc(-c2ccc(C(F)(F)F)cc2)c1
Marked response: < 398 nM
